The values you see were collected from ChEMBL document CHEMBL6115011.

Could you please report measured CC50 for the items listed next?
- Tested on: HL-60
- EXPERIMENT DESCRIPTION: Cytotoxicity against human HL-60 cells assessed as inhibition of cell growth measured after 72 hrs by CellTiter 96 Aqueous One Solution Cell Proliferation Assay
- Type: functional
Output spec: scalar in µM, unitless text.

INPUT: Reported CC50 for HL-60, given NCCCCCCNc1ncc(-c2ccc(Cl)cc2)[nH]1 ?
OUTPUT: 13.2

INPUT: Please state recorded CC50 (tested on HL-60) of NCCCCCCCCNc1ncc(-c2ccc(Br)cc2)[nH]1
OUTPUT: 30

INPUT: Request: CC50, test system HL-60, entry NCCCCCCCCNc1ncc(-c2ccccc2)[nH]1
OUTPUT: 30

INPUT: Request body: readout CC50, system HL-60, query NCCCCCCCCNc1ncc(-c2ccc(Cl)cc2)[nH]1 . Return the value.
OUTPUT: 20

INPUT: Give the reported CC50 for NCCCCCCCCCCNc1ncc(-c2ccccc2)[nH]1 (system: HL-60).
OUTPUT: 47.1
